- assayed_target: androgen receptor (Homo sapiens (Human), UniProt P10275, T878A)
- Sequence (P10275 whole entry T878A): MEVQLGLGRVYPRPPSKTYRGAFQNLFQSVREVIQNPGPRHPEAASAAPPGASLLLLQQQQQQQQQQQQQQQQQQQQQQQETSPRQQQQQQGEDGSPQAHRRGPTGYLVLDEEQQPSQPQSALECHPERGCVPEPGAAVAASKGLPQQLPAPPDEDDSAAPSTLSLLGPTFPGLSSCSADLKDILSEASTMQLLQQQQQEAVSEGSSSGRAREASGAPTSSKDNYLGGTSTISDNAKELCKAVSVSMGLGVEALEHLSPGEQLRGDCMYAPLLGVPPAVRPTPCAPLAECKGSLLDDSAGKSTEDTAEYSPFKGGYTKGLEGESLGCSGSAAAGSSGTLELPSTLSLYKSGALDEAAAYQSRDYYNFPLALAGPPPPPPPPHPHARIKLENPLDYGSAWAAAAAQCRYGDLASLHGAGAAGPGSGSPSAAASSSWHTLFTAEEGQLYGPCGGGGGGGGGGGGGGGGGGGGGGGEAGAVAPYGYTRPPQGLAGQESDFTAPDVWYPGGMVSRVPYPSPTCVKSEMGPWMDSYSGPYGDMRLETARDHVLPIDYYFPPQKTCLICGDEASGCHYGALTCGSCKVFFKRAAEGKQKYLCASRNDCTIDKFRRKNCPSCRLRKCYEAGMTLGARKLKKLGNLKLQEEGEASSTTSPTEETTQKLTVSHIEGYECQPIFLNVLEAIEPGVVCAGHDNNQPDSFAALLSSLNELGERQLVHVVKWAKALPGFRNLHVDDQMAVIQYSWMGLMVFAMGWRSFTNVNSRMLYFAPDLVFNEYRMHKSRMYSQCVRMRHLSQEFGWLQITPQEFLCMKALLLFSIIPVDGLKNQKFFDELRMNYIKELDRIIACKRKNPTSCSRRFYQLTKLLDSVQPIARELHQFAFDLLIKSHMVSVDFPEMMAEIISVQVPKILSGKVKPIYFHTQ
- procedure_summary: Activity of reducing expression level of androgen receptor (Western blotting of LNCaP cell lysate)
- Format: cell-based
- protocol_conditions: 48 hours
measure: 10 μM AR expression reducing activity

Please supply the value of reported 10 μM AR expression reducing activity for the item CC(C)Oc1ccc(Nc2ncnc3c2CN(c2ccc(C#N)c(C(F)(F)F)c2)CC3)cc1 [Comparative Example 2, reference compound]
<10%

====

- assayed_target: human androgen receptor (Homo sapiens (Human))
- Sequence (P10275 whole entry): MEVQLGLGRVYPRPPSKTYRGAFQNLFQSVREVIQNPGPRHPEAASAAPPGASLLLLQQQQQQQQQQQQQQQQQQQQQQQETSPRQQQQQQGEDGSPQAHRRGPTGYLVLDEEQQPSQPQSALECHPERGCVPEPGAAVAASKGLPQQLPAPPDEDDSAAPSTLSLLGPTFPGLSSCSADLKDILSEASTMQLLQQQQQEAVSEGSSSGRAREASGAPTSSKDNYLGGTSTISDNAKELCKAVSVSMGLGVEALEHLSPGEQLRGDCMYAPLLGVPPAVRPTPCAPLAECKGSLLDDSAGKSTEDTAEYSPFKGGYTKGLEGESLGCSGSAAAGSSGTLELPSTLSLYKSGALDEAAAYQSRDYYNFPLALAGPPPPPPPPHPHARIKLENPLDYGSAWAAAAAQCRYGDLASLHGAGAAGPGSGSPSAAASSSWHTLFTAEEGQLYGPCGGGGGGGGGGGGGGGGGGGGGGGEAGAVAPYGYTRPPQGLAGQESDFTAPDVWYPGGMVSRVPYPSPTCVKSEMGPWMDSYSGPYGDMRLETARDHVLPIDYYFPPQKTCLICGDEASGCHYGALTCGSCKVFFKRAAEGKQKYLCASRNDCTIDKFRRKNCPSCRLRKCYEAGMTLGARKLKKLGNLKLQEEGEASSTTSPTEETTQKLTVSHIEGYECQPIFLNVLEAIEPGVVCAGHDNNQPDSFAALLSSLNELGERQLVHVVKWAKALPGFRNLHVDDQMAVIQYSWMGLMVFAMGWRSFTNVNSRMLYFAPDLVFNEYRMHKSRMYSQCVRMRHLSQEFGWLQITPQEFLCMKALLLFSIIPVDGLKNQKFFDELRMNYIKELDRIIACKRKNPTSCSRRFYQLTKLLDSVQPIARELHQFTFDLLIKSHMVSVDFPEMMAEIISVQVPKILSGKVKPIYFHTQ
- procedure_summary: Antagonist activity for AR (pMMTV-luc reporter transcription activity in transfected COS-7 cells, DHT 1 nmol/L)
- protocol_conditions: 50% transcription activity inhibition concentration; COS-7 cells with pMMTV-luc and pEX-hAR, DHT 1 nmol/L, 24 hours
measure: IC50

Please supply the value of reported IC50 for the item "CC(C)(O)c1ccc(Nc2ncnc3c2CCN(c2ccc(C#N)c(Cl)c2)C3)nn1"
0.07 µM

Please supply the value of reported IC50 for the item "N#Cc1ccc(N2CCc3c(ncnc3Nc3ccc(C(=O)NCC(F)(F)F)nn3)C2)cc1Cl"
0.002 µM

Please supply the value of reported IC50 for the item "CC(C)(O)c1cnc(Nc2ncnc3c2CCN(c2ccc(C#N)c(C(F)(F)F)c2)C3)cc1F"
0.07 µM

Please supply the value of reported IC50 for the item "CC(C)(O)C1CCN(C(=O)c2nnc(Nc3ncnc4c3CCN(c3ccc(C#N)c(C(F)(F)F)c3)C4)o2)CC1"
0.79 µM

Please supply the value of reported IC50 for the item "CC(C)(O)C1CCN(C(=O)c2coc(Nc3ncnc4c3CCN(c3ccc(C#N)c(C(F)(F)F)c3)C4)n2)CC1"
1.94 µM

Please supply the value of reported IC50 for the item CC(C)(O)c1ccc(Nc2ncnc3c2CCN(c2cc(Cl)cc(C#N)c2)C3)nc1 [Comparative Example 6, reference compound]
> 10 µM

Please supply the value of reported IC50 for the item "COc1ccc(Nc2ncnc3c2CCN(c2ccc(C#N)c(C(F)(F)F)c2)C3)cc1"
0.53 µM

====

- assayed_target: androgen receptor (Homo sapiens (Human), UniProt P10275, T878A)
- procedure_summary: Activity of reducing expression level of androgen receptor (Western blotting of LNCaP cell lysate)
- Assay type: cell-based
- protocol_conditions: 48 hours
What 10 μM AR expression reducing activity was measured for each of the following?

GET 10 μM AR expression reducing activity where system = androgen receptor (Homo sapiens (Human), UniProt P10275, T878A) and item = FC(F)(F)c1ccc(Nc2ncnc3c2CCN(c2ncccc2Cl)C3)cc1 [Comparative Example 4, reference compound]
<10%

GET 10 μM AR expression reducing activity where system = androgen receptor (Homo sapiens (Human), UniProt P10275, T878A) and item = CC(C)Oc1ccc(Nc2nnc3n2CCN(c2ccc(C#N)c(C(F)(F)F)c2)C3)cc1 [Comparative Example 3, reference compound]
<10%

====

What IC50 was measured for each of the following?
- assayed_target: human androgen receptor (Homo sapiens (Human))
- procedure_summary: Antagonist activity for AR (pMMTV-luc reporter transcription activity in transfected COS-7 cells, DHT 1 nmol/L)
- protocol_conditions: 50% transcription activity inhibition concentration; COS-7 cells with pMMTV-luc and pEX-hAR, DHT 1 nmol/L, 24 hours
Answer in nM, number only, no unit symbol.

Please supply the value of reported IC50 for the item "N#Cc1ccc(N2CCc3c(ncnc3Nc3ccc(C(=O)NCC(F)F)cn3)C2)cc1C(F)(F)F"
90

Please supply the value of reported IC50 for the item "N#Cc1ccc(N2CCc3c(ncnc3Nc3ncc(S(=O)(=O)N4CCCOCC4)s3)C2)cc1C(F)(F)F"
100

Please supply the value of reported IC50 for the item "N#Cc1ccc(N2CCc3c(ncnc3Nc3ccc(NC(=O)CC(F)(F)F)cn3)C2)cc1C(F)(F)F"
800

Please supply the value of reported IC50 for the item "CC(C)Oc1ccc(Nc2ncnc3c2CCN(c2ccc(C#N)c(C(F)(F)F)c2)C3)cn1"
110

Please supply the value of reported IC50 for the item "CC(C)(O)CNC(=O)c1cnc(Nc2ncnc3c2CCN(c2ccc(C#N)c(C(F)(F)F)c2)C3)cn1"
310

Please supply the value of reported IC50 for the item "C[C@@H](NC(=O)c1sc(Nc2ncnc3c2CCN(c2ccc(C#N)c(C(F)(F)F)c2)C3)nc1C(F)(F)F)c1nnco1"
170

====

- assayed_target: UniProt P10275
- procedure_summary: Antagonist activity for AR (pMMTV-luc reporter transcription activity in transfected COS-7 cells, DHT 1 nmol/L)
- protocol_conditions: 50% transcription activity inhibition concentration; COS-7 cells with pMMTV-luc and pEX-hAR, DHT 1 nmol/L, 24 hours
What IC50 was measured for each of the following?

Please supply the value of reported IC50 for the item CC(C)Oc1ccc(Nc2nnc3n2CCN(c2ccc(C#N)c(C(F)(F)F)c2)C3)cc1 [Comparative Example 3, reference compound]
> 10 µM

Please supply the value of reported IC50 for the item N#Cc1cc(C(F)(F)F)ccc1N1CCc2c(ncnc2Nc2ccc(C(=O)NCC(F)(F)F)cn2)C1 [Comparative Example 8, reference compound]
> 10 µM

Please supply the value of reported IC50 for the item N#Cc1ccc(C(F)(F)F)cc1N1CCc2c(ncnc2Nc2ccc(C(=O)NCC(F)(F)F)cn2)C1 [Comparative Example 9, reference compound]
> 10 µM

====

- assayed_target: human androgen receptor (Homo sapiens (Human))
- procedure_summary: Antagonist activity for AR (pMMTV-luc reporter transcription activity in transfected COS-7 cells, DHT 1 nmol/L)
- protocol_conditions: 50% transcription activity inhibition concentration; COS-7 cells with pMMTV-luc and pEX-hAR, DHT 1 nmol/L, 24 hours
What IC50 was measured for each of the following?
Answer in nM, number only, no unit symbol.

Please supply the value of reported IC50 for the item "CC(C)(O)c1ccc(Nc2ncnc3c2CCN(c2ccc(C#N)c(C(F)(F)F)c2)C3)nn1"
90

Please supply the value of reported IC50 for the item "N#Cc1ccc(N2CCc3c(ncnc3Nc3ccc(OCCn4ccnn4)nc3)C2)cc1C(F)(F)F"
130

Please supply the value of reported IC50 for the item "N#Cc1ccc(N2CCc3c(ncnc3Nc3ccc(S(=O)(=O)NC4CC4)cn3)C2)cc1C(F)(F)F"
130
